- System: UO-31 renal
- assay.notes: NCI tumour cell line growth inhibition, 48 h
This listing pairs molecules with measured TGI.

Example cases with answers are listed next.
>>> result("COc1ccccc1-c1c(C#N)c(N)[nH]c(=S)c1C#N")
"> 100 µM"
>>> result("COc1cc(N(C)C)c(OC)cc1C=C1C=CC=C1")
"> 100 µM"
>>> result("COc1ccccc1NC(=O)C1=C(C)NC(C)=C(C(=O)Nc2ccccc2OC)C1c1ccco1")
"> 83.5 µM"
>>> result("COC(=O)C(=O)C(C(=O)C(=O)Nc1ccc(C)cc1C)c1nc2ccc(Cl)cc2[nH]c1=O (stereo not given)")
"> 100 µM"

Now take the following molecule into account.
Form field TGI, entry "COc1ccc(-c2csc(Nc3cccc(-c4csc(C)n4)c3)n2)cc1" : > 50 µM

###

This listing pairs molecules with measured TGI.
- System: A549 NSCLC
- assay.notes: NCI tumour cell line growth inhibition, 48 h

>>> result("C=C1C(=O)O[C@H]2C1C[C@H](O)[C@@]1(C)OC1CC[C@@]1(C)O[C@H]21 (stereo partly drawn)")
"> 100 µM"
>>> result("Cc1nc2ccccc2c(=O)n1/N=C(\\N=Nc1cc(Cl)ccc1Cl)c1ccccc1")
"> 100 µM"

Form field TGI, entry "O=C1CCC(=O)N1Sc1ccccc1" : > 100 µM

Form field TGI, entry "COC(=O)C(=O)Nc1cc2c3c(c1)Oc1cccc4c1C3(C)c1c(cccc1O2)O4" : > 100 µM

Form field TGI, entry "COc1ccc2nc3cc(Cl)ccc3c(NCCCN3CCN(CCCNc4ccc5nnn6c7ccccc7c(=O)c4c56)CC3)c2c1" : > 25 µM

Form field TGI, entry "O=[N+]([O-])/C(Cl)=C(/C(Cl)=C(Cl)Cl)N1CCOCC1" : 15.6 µM

Form field TGI, entry "CCOc1ccc(NC(=O)C(=O)Nn2c(N)nnc2N)cc1" : > 100 µM

Form field TGI, entry "CCOc1nc2c(N3CCCC3)nc(N3CCNCC3)nc2nc1NCc1ccccc1" : 4.26 µM

Form field TGI, entry "CC1=NN(c2nc(N)nc(/C(C#N)=C\c3ccc(-c4ccc([N+](=O)[O-])cc4)o3)n2)C(C)(C)C1" : > 100 µM

Form field TGI, entry "COC(=O)c1c(O)ccc2c1c1c(n2Cc2cc(OC)cc(OC)c2)C(=O)c2ccccc2C1=O" : 31.3 µM

Form field TGI, entry "Nc1nc(SCC(=O)c2ccc(Br)cc2)c2[nH]cnc2n1" : > 100 µM

Form field TGI, entry O=P(NCCCO)(OCc1ccccc1)N(CCCl)CCCl (stereo not drawn) : > 100 µM

Form field TGI, entry "CO/C(=N\N=C\c1ccc(Cl)c(Cl)c1)c1ccncc1" : > 10 µM

Form field TGI, entry "COC(=O)/C=C\C(C#N)(C#N)N=Cc1ccc(OC)cc1" : 38.3 µM

Form field TGI, entry C1=CC2CCC1CN2CCC1CNc2ccccc21 (stereo not drawn) : > 100 µM

Form field TGI, entry "O=C(O)c1cc2ccccc2c(N=Nc2ccc(S(=O)(=O)Nc3ncccn3)cc2)c1O" : > 100 µM

Form field TGI, entry Cc1cn(C2CC(N=[N+]=[N-])C(COP(=O)(O)OCC3OC(n4cc(F)c(=O)[nH]c4=O)CC3O)O2)c(=O)[nH]c1=O (stereo not drawn) : > 100 µM

Form field TGI, entry COC(=O)C(=O)C(C(=O)C(=O)Nc1ccc(C)cc1C)c1nc2ccc(Cl)cc2[nH]c1=O (stereo not drawn) : > 100 µM

###

This listing pairs compounds with measured GI50.
- System: SK-MEL-28 melanoma
- assay.notes: NCI tumour cell line growth inhibition, 48 h

Example cases with answers are listed next.
>>> result("COc1ccc(/C=C/C(=O)c2cc3c(N)c(C(=O)Nc4ccc(OC)cc4)sc3nc2C)cc1")
"0.4 µM"
>>> result("CC[C@H]1OC(=O)[C@H](C)[C@@H](O[C@H]2C[C@@](C)(OC)[C@@H](O)[C@H](C)O2)[C@H](C)[C@@H](O[C@@H]2O[C@H](C)C[C@H](N(C)C)[C@H]2O)[C@](C)(OC)C/C(C)=C2/O[C@@]1(C)C=C2C")
"1.89 µM"
>>> result("COc1cc2c3c(n(CCCNCCCNCCCN)c(=O)c2cc1OC)-c1cc2c(cc1C3=O)OCO2")
"> 100 µM"
>>> result("COc1cc2c3cc1Oc1c(OC)c(OC)cc4c1C(Cc1ccc(O)c(c1)Oc1ccc(cc1)CC3N(C)CC2)N(C)CC4 (configuration not stated)")
"8.49 µM"
>>> result("COc1cc(-c2nn(-c3cccc(NC(=O)CCN4CCN(c5ccccc5)CC4)c3)cc2-c2ccncc2)ccc1Cl")
"3.19 µM"
>>> result("CCc1ccc2c(c1)N(CCO)C1=C(C(=O)OC1)C2c1cc(OC)c(OC)c(OC)c1 (configuration not stated)")
"0.275 µM"

Now take the following compound into account.
Form field GI50, entry "O=C1Nc2ccc3c(c2/C1=C\c1cc2c(cc1Br)OCO2)OCO3" : 0.911 µM

###

- Test system: PC-3 prostate
- assay.notes: NCI tumour cell line growth inhibition, 48 h
This listing pairs compounds with measured TGI.

>>> result("CC1=CCC(C(C)(C)NC(=O)c2ccccc2)C/C1=N/O (centres undefined)")
"> 100 µM"
>>> result("COc1cc(C2c3cc4c(cc3C(=O)C3CCC(=O)N32)OCO4)cc(OC)c1O (centres undefined)")
"> 50 µM"
>>> result("C#C[C@]1(O)CC[C@H]2[C@@H]3CC=C4c5nc(N)sc5CC[C@]4(C)[C@H]3CC[C@@]21C")
"19.7 µM"
>>> result("O=[N+]([O-])/C=C/c1ccc(Cl)cc1[N+](=O)[O-]")
"8.34 µM"
>>> result("CC(C)OP(=O)(OC(C)C)C(C)(C)O")
"> 100 µM"

Form field TGI, entry "Cc1[nH]c(-c2ccccc2)c2nc(N(C)C)oc(=O)c12" : > 100 µM

Form field TGI, entry CSC1=Nc2c(c(C)c(-c3ccccc3)n2COC(CO)CO)C2=NC(=O)CC(C)N12 (centres undefined) : > 100 µM

Form field TGI, entry "CCOc1ccc(NC(=O)C(=O)Nn2c(N)nnc2N)cc1" : > 100 µM

Form field TGI, entry "COC(=O)c1c(O)ccc2c1c1c(n2Cc2cc(OC)cc(OC)c2)C(=O)c2ccccc2C1=O" : 19.3 µM

Form field TGI, entry "O=C(Cc1nc2ccccc2[nH]c1=O)c1c[nH]c2ccccc12" : 31.3 µM

Form field TGI, entry "O=C(O)c1ccccc1NCn1c(=S)sc2ccccc21" : > 100 µM

Form field TGI, entry COC(=O)/C=C/[C@@H]1[C@H](C)N1S(=O)(=O)c1ccc(C)cc1 (some centres undefined) : > 100 µM

Form field TGI, entry CC(=O)[C@H]1[C@H](O)C[C@@]2(C)[C@@H]3CCc4cc(O)c(OC5OC(CO)C(O)C(O)C5O)cc4C3(C)C(=O)C[C@]12C (some centres undefined) : > 100 µM

Form field TGI, entry Cc1cn(C2CC(N=[N+]=[N-])C(COP(=O)(O)OCC3OC(n4cc(F)c(=O)[nH]c4=O)CC3O)O2)c(=O)[nH]c1=O (centres undefined) : > 100 µM

###

- Test system: ACHN renal
- assay.notes: NCI tumour cell line growth inhibition, 48 h
Where a SMILES comes first, the peptide text is derived from it. The star is where a group is joined. Boc = CC(C)(C)OC(=O)*; nBu = CCCC*
This listing pairs compounds with measured TGI.

Example cases with answers are listed next.
>>> result("Cc1ccc(-c2cc(-c3ccc(Cl)cc3)nc(/N=C3\\C(=O)N(CN(C)C)c4ccccc43)n2)cc1")
"> 100 µM"
>>> result("Cc1c(-c2ccccc2)[nH]c2cn[nH]c(=O)c12")
"> 100 µM"
>>> result("O=C1Nc2ccc3c(c2/C1=C\\c1cc2c(cc1Br)OCO2)OCO3")
"6.55 µM"
>>> result("COc1cc(C2c3cc4c(cc3C(=O)C3CCC(=O)N32)OCO4)cc(OC)c1O (centres undefined)")
"> 50 µM"
>>> result("Cc1c(/C=N/NC(=S)N2CCCCC2)c(=O)n(-c2ccccc2)n1C")
"98.5 µM"

Form field TGI, entry CCCCOc1ccc(CC(NC(=O)OC(C)(C)C)C(=O)NC(C)C(=O)NC(Cc2ccccc2)C(=O)NCC(N)=O)cc1 (centres undefined) (Boc-Y(nBu)AFG-NH2; configuration not given here) : > 100 µM

Form field TGI, entry CC1(C)OC(=O)C(=C2CCC(C(=O)Nc3cccc(C(F)(F)F)c3)N2)C(=O)O1 (centres undefined) : > 100 µM

Form field TGI, entry COc1ccc(C2Cc3cc(OC)c(OC)c(OC)c3C2)cc1 (centres undefined) : > 100 µM

Form field TGI, entry CC(C)CC(N)C(=O)NC(C(=O)NC(CCCNC(=N)N)C(=O)NC(CS)C(=O)NC1CSCC(C(=O)NC(Cc2ccccc2)C(=O)NC(C(=O)NC(CCCNC(=N)N)C(=O)O)C(C)C)NC(=O)C2CCCN2C(=O)C(CCCCN)NC(=O)C2CCCN2C(=O)C2CCCN2C(=O)C(Cc2ccc(O)cc2)NC(=O)C(CO)NC(=O)C(CCCCN)NC(=O)C(C(C)O)NC(=O)C(Cc2c[nH]c3ccccc23)NC1=O)C(C)C (centres undefined) : > 25 µM
